# ASSAY SYSTEM: T1, Goat anti-Human Kappa
# T1 construct: Positive control; also called biotinylated goat anti-human kappa light chain
# PROCEDURE SUMMARY: ELISA; positive control; note: test concentration or dose not given here
Examples of binders with documented optical density follow.
Note: unit OD is implicit; provide only the numeric part.

Use the examples below as a reference point.
optical density lookup needed for 369_A11 (antibody, V domains shown, VH/VL only) VH: EVQLLESGGGLVQPGGSLRLSCAASGFTFDSYGMNWVRQAPGKGLEWVANINYNGGYKGYADSVKGRFTISRDNSKNTLYLQMNSLRAEDTAVYYCARGATWHDTHLDYWGQGTLVTVSS VL: DIQMTQSPSSLSASVGDRVTITCRASQSIITYLNWYQQKPGKAPKLVIYAATSRHSGVPSRFSGSGSGTDFTLTISSLQPEDFATYYCQQSYESPLTFGGGTKVEIK , thanks.
3.29

optical density lookup needed for 369_E05 (antibody, V domains shown, VH/VL only) VH: EVQLLESGGGLVQPGGSLRLSCAASGFTFSDYGMNWVRQAPGKGLEWVANINYNGGYKSYADSVKGRFTISRDNSKNTLYLQMNSLRAEDTAVYYCARGATWHDTHLDYWGQGTLVTVSS VL: DIQMTQSPSSLSASVGDRVTITCRASQSILTYLNWYQQKPGKAPKLLIYAATSLASGVPSRFSGSGSGTDFTLTISSLQPEDFATYYCQQSYETPLTFGGGTKVEIK , thanks.
1.9

optical density lookup needed for 366_H06 (antibody, V domains shown, VH/VL only) VH: EVQLLESGGGLVQPGGSLRLSCAASGFTFSSYGMNWVRQAPGKGLEWVSSINYNGGYTGYADSVKGRFTISRDNSKNTLYLQMNSLRAEDTAVYYCARSANWHDTALDYWGQGTLVTVSS VL: DIQMTQSPSSLSASVGDRVTITCRASQSILSYLNWYQQKPGKAPKLLIYATTSRASGVPSRFSGSGSGTDFTLTISSLQPEDFATYYCQQSYDTPLTFGGGTKVEIK , thanks.
3.39

---
optical density lookup needed for 367_H10 (antibody, V domains shown, VH/VL only) VH: EVQLLESGGGLVQPGGSLRLSCAASGFTFSSYGMNWVRQAPGKGLEWVASINYNGGYTGYADSVKGRFTISRDNSKNTLYLQMNSLRAEDTAVYYCARGATWHDTHLDYWGQGTLVTVSS VL: DIQMTQSPSSLSASVGDRVTITCRASQSILSYVNWYQQKPGKAPKLVIYAATSRASGVPSRFSGSGSGTDFTLTISSLQPEDFATYYCQQSYELPLTFGGGTKVEIK , thanks.
3.55

optical density lookup needed for 373_G02 (antibody, V domains shown, VH/VL only) VH: EVQLLESGGGLVQPGGSLRLSCAASGFTFSSYSMNWVRQAPGKGLEWVSGINYNGGYTSYADSVKGRFTISRDNSKNTLYLQMNSLRAEDTAVYYCARGATWHDTHLDYWGQGTLVTVSS VL: DIQMTQSPSSLSASVGDRVTITCRASQSIITYLNWYQQKPGKAPKLLIYAATSRASGVPSRFSGSGSGTDFTLTISSLQPEDFATYYCQQSYSSPLTFGGGTKVEIK , thanks.
3.22
